GI50: recorded values
System: IGROV-1
Assay info: NCI tumour cell line growth inhibition, 48 h
The source made the active and inactive calls. Rule as the data show it: active = GI50 up to about 1.1 µM and inactive = higher.

Ask: Please tell me: GI50 of Fc1ccccc1C1CC(C(c2ccccc2)c2ccccc2)=Nc2ccccc2S1 (configuration not stated) , system IGROV-1?
Reply: 6.95 µM (inactive)

Ask: Please tell me: GI50 of CCCCCCCCCCCCCC(=O)CC(=O)c1c(O)cccc1O , system IGROV-1?
Reply: 48 µM (inactive)

Ask: Please tell me: GI50 of COc1cc(-c2cc(O)c(-c3ccc4ccccc4n3)c(O)n2)cc(OC)c1OC , system IGROV-1?
Reply: 43.5 µM (inactive)

New cases:
Ask: Please tell me: GI50 of NC1CC(=O)c2cc(Br)sc21 (configuration not stated) , system IGROV-1?
Reply: > 100 µM (inactive)

Ask: Please tell me: GI50 of Cc1cccc(NC(=S)Nc2cccc(Cl)c2)n1 , system IGROV-1?
Reply: 44.2 µM (inactive)

Ask: Please tell me: GI50 of Cc1ccc(C(=O)O)c(/C=C2\Cc3cc(C)cc(C)c3C2=O)c1 , system IGROV-1?
Reply: > 100 µM (inactive)

Ask: Please tell me: GI50 of C/C(=N\Nc1nc2ccccc2[nH]1)c1cccc[n+]1[O-] , system IGROV-1?
Reply: 63.4 µM (inactive)

Ask: Please tell me: GI50 of COc1ccc(/C=C2/S/C(=N\c3ccccc3)N(NC(=O)Cc3ccccc3)C2=O)c(OC)c1 , system IGROV-1?
Reply: > 100 µM (inactive)

Ask: Please tell me: GI50 of CC12CC(c3ccccc3O1)C(C(=O)Nc1cccc(F)c1)C(=O)N2 (configuration not stated) , system IGROV-1?
Reply: 40.7 µM (inactive)
